testedTarget: human MC4R receptor (human, UniProt P32245 1-332)
Sequence (P32245 whole entry): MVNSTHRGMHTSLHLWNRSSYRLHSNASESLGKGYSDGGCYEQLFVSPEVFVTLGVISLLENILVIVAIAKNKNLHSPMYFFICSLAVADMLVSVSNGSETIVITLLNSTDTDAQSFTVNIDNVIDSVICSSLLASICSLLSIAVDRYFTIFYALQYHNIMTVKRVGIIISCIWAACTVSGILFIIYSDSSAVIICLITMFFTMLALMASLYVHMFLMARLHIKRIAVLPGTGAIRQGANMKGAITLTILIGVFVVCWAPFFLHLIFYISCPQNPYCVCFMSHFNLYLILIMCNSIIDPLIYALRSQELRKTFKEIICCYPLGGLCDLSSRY
test: cell-based or functional assay
Positions of bridges follow the written chain, without caps; N, C: chain ends. Non-standard residues stand in square brackets, D forms with d. dPhe(4-Br) = N[C@H](Cc1ccc(Br)cc1)C(=O)O

binder | readingUnit | % max activation
Ac-RC[dA]P[dPhe(4-Br)]RWC-NH2 (disulfide 2-8; SMILES CC(=O)N[C@@H](CCCNC(=N)N)C(=O)N[C@H]1CSSC[C@@H](C(N)=O)NC(=O)[C@H](Cc2c[nH]c3ccccc23)NC(=O)[C@H](CCCNC(=N)N)NC(=O)[C@@H](Cc2ccc(Br)cc2)NC(=O)[C@@H]2CCCN2C(=O)[C@@H](C)NC1=O) [CTX-2204] | % | 13
Ac-RC[dA]R[dW]RWC-NH2 (disulfide 2-8; SMILES CC(=O)N[C@@H](CCCNC(=N)N)C(=O)N[C@H]1CSSC[C@@H](C(N)=O)NC(=O)[C@H](Cc2c[nH]c3ccccc23)NC(=O)[C@H](CCCNC(=N)N)NC(=O)[C@@H](Cc2c[nH]c3ccccc23)NC(=O)[C@H](CCCNC(=N)N)NC(=O)[C@@H](C)NC1=O) [CTX-1274] | % | 77
Ac-RC[dA]R[dY]R[dW]C-NH2 (disulfide 2-8; SMILES CC(=O)N[C@@H](CCCNC(=N)N)C(=O)N[C@H]1CSSC[C@@H](C(N)=O)NC(=O)[C@@H](Cc2c[nH]c3ccccc23)NC(=O)[C@H](CCCNC(=N)N)NC(=O)[C@@H](Cc2ccc(O)cc2)NC(=O)[C@H](CCCNC(=N)N)NC(=O)[C@@H](C)NC1=O) [CTX-1237] | % | 61
Ac-RC[dA]R[dPhe(4-Br)]R[dW]CRFG-OH (disulfide 2-8; SMILES CC(=O)N[C@@H](CCCNC(=N)N)C(=O)N[C@H]1CSSC[C@@H](C(=O)N[C@@H](CCCNC(=N)N)C(=O)N[C@@H](Cc2ccccc2)C(=O)NCC(=O)O)NC(=O)[C@@H](Cc2c[nH]c3ccccc23)NC(=O)[C@H](CCCNC(=N)N)NC(=O)[C@@H](Cc2ccc(Br)cc2)NC(=O)[C@H](CCCNC(=N)N)NC(=O)[C@@H](C)NC1=O) [CTX-1219] | % | 76
Ac-RC[dA]R[dPhe(4-Br)]R[dW]CKP-NH2 (disulfide 2-8; SMILES CC(=O)N[C@@H](CCCNC(=N)N)C(=O)N[C@H]1CSSC[C@@H](C(=O)N[C@@H](CCCCN)C(=O)N2CCC[C@H]2C(N)=O)NC(=O)[C@@H](Cc2c[nH]c3ccccc23)NC(=O)[C@H](CCCNC(=N)N)NC(=O)[C@@H](Cc2ccc(Br)cc2)NC(=O)[C@H](CCCNC(=N)N)NC(=O)[C@@H](C)NC1=O) [CTX-1217] | % | 69
